biological target: Orexin/Hypocretin receptor type 1 (Homo sapiens, UniProt O43613); test: Homogeneous Time Resolved Fluorescence (HTRF)-based cell-based high throughput dose response assay for antagonists of the orexin 1 receptor (OX1R; HCRTR1). [Related pubchem assays (depositor defined):AID434989, AID435008, AID463079, AID485270, AID492963, AID492964, AID492965, AID493232, AID504717, AID504718]; type: functional;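 also: antagonism measured against Orexin-A challenge at about its EC80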
Sequence (O43613 whole entry): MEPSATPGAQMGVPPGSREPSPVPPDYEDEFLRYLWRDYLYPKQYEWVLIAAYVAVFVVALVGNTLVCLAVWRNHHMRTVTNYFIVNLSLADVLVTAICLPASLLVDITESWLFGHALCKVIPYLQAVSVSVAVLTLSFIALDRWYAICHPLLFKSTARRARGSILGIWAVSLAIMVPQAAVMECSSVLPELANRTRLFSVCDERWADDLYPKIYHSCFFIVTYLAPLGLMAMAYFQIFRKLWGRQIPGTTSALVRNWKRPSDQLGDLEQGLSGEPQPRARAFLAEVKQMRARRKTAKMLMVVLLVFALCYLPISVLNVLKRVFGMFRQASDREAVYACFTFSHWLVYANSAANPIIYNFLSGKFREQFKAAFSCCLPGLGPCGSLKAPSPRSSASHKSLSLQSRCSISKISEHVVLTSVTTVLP
Activity calls are given as the source filed them.
Endpoint label: IC50

1) CC[C@]12c3[nH]c4cc(-c5ccco5)ccc4c3CCN1C(=O)[C@@H](CC(=O)NC/C=C(\C)CCC=C(C)C)C[C@@H]2C(=O)N1CCN(C(=O)c2ccco2)CC1
1070 nM (active)
2) Cc1cc(SCC(=O)c2ccc3c(c2)OCO3)nc2ccccc12
3340 nM (active)
3) CCN(CC)P(=O)(Nc1cccc(C(F)(F)F)c1)c1ccc(N(C)C)cc1NC(=O)c1ccco1 (centres undefined)
184 nM (active)
4) Cc1ccccc1N(CC(=O)NC1CCCC1)C(=O)c1oc(C(C)(C)C)cc1C
264 nM (active)

###

biological target: Nucleotide-binding oligomerization domain-containing protein 2 (Homo sapiens, UniProt Q9HC29); experiment: NOD2 signaling inhibitors, cell-based, luminescence, uHTS, HEK293 (AID 1566); type: functional
Sequence (Q9HC29 whole entry, the tested form may be a part): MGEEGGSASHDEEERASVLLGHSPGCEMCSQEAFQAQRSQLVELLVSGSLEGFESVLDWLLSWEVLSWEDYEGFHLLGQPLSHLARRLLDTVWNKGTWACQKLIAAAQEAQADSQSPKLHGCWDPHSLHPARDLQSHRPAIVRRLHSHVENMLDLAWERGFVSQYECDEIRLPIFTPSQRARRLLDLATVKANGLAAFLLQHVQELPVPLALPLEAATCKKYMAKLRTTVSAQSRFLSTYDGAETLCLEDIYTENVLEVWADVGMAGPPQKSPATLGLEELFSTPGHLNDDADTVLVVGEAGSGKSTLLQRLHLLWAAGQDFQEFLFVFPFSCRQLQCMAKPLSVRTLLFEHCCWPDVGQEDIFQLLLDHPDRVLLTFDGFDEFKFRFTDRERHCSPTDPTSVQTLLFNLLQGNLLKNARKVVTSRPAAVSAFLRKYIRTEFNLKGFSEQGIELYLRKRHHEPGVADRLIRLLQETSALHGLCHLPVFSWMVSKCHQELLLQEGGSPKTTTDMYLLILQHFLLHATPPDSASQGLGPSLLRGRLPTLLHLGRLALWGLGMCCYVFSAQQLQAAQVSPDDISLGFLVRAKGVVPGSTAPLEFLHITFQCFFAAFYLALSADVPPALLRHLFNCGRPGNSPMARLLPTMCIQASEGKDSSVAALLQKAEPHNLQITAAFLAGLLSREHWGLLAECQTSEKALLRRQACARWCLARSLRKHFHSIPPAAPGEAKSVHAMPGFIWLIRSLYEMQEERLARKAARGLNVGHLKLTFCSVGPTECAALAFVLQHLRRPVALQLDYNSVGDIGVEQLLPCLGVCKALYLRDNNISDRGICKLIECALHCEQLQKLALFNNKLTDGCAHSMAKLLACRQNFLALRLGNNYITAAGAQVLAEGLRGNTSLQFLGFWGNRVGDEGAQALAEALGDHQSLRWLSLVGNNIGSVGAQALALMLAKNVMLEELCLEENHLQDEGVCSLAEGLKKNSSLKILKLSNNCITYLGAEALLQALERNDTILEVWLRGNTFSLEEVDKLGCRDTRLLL
Active and inactive are the calls of the source.
Possible outcomes: YES (active), NO (inactive)

1. Cc1ccc(S(=O)(=O)c2ccc([N+](=O)[O-])cn2)cc1
NO
2. CCC(C)(C)c1ccc(OCCCC[n+]2cccc(C)c2C)c(C(C)(C)CC)c1
YES
3. Cc1c(Nc2c3ccccc3nc3ccccc23)c(=O)n(-c2ccccc2)n1C
NO
4. Cc1oc2c(C)c3oc(=O)c(CCC(=O)O)c(C)c3cc2c1-c1ccccc1
YES

###

Reported EC50 is given for each of the following compounds.
assay: inhibitors of intracellular T. cruzi replication, confirmation, NIH3T3 host cells, beta-gal luminescence (AID 2044); assay type: functional, cell-based;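 also: intracellular parasites grown in NIH/3T3 mouse fibroblasts as host cells; luminescent beta-galactosidase reporter signal from transgenic T. cruzi replicating inside host cells; inhibitors lower the luminescence signal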
Calls of active or inactive are those of the source.
Endpoint label: EC50

1. CCOc1ccc(NCC(=O)c2ccc(C)cc2)cc1
1.38 µM (active)
2. CCCCCCCCn1c(N2CCN(c3cccc(Cl)c3)CC2)nc2c1c(=O)[nH]c(=O)n2C
2.22 µM (active)
3. CC(NCC(O)COCCC12CC3CC(CC(C3)C1)C2)c1ccccc1 (configuration not stated)
0.157 µM (active)
4. N#Cc1ccc(OCCOCCNC2CCCC2)cc1
0.2 µM (active)
5. CC(NS(=O)(=O)c1ccc(CCC(=O)N2CCN(C)CC2)cc1)c1ccccc1 (configuration not stated)
< 0.1 µM (active)
6. COc1ccccc1Nc1ncnc2c1c(C)c(C)n2CCCN(C)C
0.156 µM (active)
7. CN1CCN(Cc2ccc(Sc3ccc(Cl)cc3)c([N+](=O)[O-])c2)CC1
1.13 µM (active)

###

Reported AC50 is given for each of the following compounds.
assay: intracellular Trypanosoma cruzi inhibitors in host cells – cell-based, plate reader, cherry-pick samples, set 3, dose response (AID 651818); assay type: functional;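 also: compounds incubated with infected cells for about four days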
Activity calls are given as the source filed them.
Endpoint label: AC50

1) C[C@@H]1CCCCO[C@@H](CN(C)Cc2ccc(Cl)c(Cl)c2)[C@@H](C)CN([C@H](C)CO)C(=O)c2cc(NC(=O)Nc3ccc(C(F)(F)F)cc3)ccc2O1
2.84 µM (active)
2) C[C@H]1CN([C@@H](C)CO)C(=O)Cc2cc(NC(=O)NC3CCCCC3)ccc2O[C@@H]1CN(C)Cc1ccc(Cl)c(Cl)c1
7.18 µM (active)
3) C[C@@H]1CN([C@@H](C)CO)C(=O)c2cccc(NS(=O)(=O)c3ccccc3)c2O[C@H]1CN(C)Cc1ccc(-c2ccccc2)cc1
1.39 µM (active)
4) COc1ccc(S(=O)(=O)Nc2ccc3c(c2)CC(=O)N([C@H](C)CO)C[C@@H](C)[C@@H](CN(C)Cc2ccc(Cl)c(Cl)c2)O3)cc1
3.78 µM (active)
